# Kd per record follows
biological target: human galectin-3C (Gal-3C, C-terminal CRD of galectin-3) (Homo sapiens, UniProt P17931); construct: only the C-terminal domain was used (Gal-3C); 6xHis tag with TEV protease site (N, cleaved yes); made in house; host or cells: BL21 Escherichia coli (pET-15b); assay: Competitive fluorescence polarization assay, Gal-3C; format: binding; settings: CSV supplement, unrounded mean; read-out: Gal3C_Kd_mean_uM
Sequence (P17931 118-248 limits assumed): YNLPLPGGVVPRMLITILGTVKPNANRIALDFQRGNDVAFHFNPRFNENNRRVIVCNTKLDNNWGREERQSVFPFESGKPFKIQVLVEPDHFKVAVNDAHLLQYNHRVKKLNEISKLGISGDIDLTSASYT
Quick note: give the figure in µM, leave out the unit.

See these solved cases before continuing.
- Structure as smiles: "CC(=O)N(c1ccc(F)c(F)c1)[C@@H]1O[C@H](CO)[C@@H](O[C@@H]2O[C@H](CO)[C@H](O)[C@H](O)[C@H]2O)[C@H](O)[C@H]1O"
  Kd / µM: 127
- Structure as smiles: "CC(=O)N(c1ccccc1F)[C@@H]1O[C@H](CO)[C@@H](O[C@@H]2O[C@H](CO)[C@H](O)[C@H](O)[C@H]2O)[C@H](O)[C@H]1O"
  Kd / µM: 93.2

From here, focus on the item given below.
stdin: Notebook: pull reported Kd for human galectin-3C (Gal-3C, C-terminal CRD of galectin-3) (Homo sapiens, UniProt P17931), entry COc1ccc(N(C(C)=O)[C@@H]2O[C@H](CO)[C@@H](O[C@@H]3O[C@H](CO)[C@H](O)[C@H](O)[C@H]3O)[C@H](O)[C@H]2O)cc1
stdout: 137

====

molecular target: human galectin-3C (Gal-3C, C-terminal CRD of galectin-3) (Homo sapiens); construct: only the C-terminal domain was used (Gal-3C); 6xHis tag with TEV protease site (N, cleaved yes); made in house; host or cells: BL21 Escherichia coli (pET-15b); assay: Competitive fluorescence polarization assay, Gal-3C; assay type: binding; settings: CSV supplement, unrounded mean; read-out: Gal3C_Kd_mean_uM
# Kd per record follows
Quick note: give the figure in µM, leave out the unit.

See these solved cases before continuing.
- Structure as smiles: "CNC(=O)c1cccc(N(C(C)=O)[C@@H]2O[C@H](CO)[C@@H](O[C@@H]3O[C@H](CO)[C@H](O)[C@H](O)[C@H]3O)[C@H](O)[C@H]2O)c1"
  Kd, µM: 88.1
- Structure as smiles: "CC(=O)c1c[nH]c2cc(C(=O)O)cc(N(C(C)=O)[C@@H]3O[C@H](CO)[C@@H](S[C@@H]4O[C@H](CO)[C@H](O)[C@H](n5cc(-c6cccc(F)c6)nn5)[C@H]4O)[C@H](O)[C@H]3O)c12"
  Kd, µM: 0.0315

stdin: // query Kd value for entry CC(=O)N(c1cccc(-c2ccc(C)o2)c1)[C@@H]1O[C@H](CO)[C@@H](O[C@@H]2O[C@H](CO)[C@H](O)[C@H](O)[C@H]2O)[C@H](O)[C@H]1O
stdout: 121

====

molecular target: human galectin-3C (Gal-3C, C-terminal CRD of galectin-3) (Homo sapiens, UniProt P17931); construct: only the C-terminal domain was used (Gal-3C); 6xHis tag with TEV protease site (N, cleaved yes); made in house; host or cells: BL21 Escherichia coli (pET-15b); assay: Competitive fluorescence polarization assay, Gal-3C; type: binding; details: four-parameter logistic model; mean ± SD; read-out: IC50 Gal-3C
# IC50 per record follows
Quick note: give the figure in µM, leave out the unit.

See these solved cases before continuing.
- Structure as smiles: "CC(=O)N(c1cccc(-c2ccc(C)o2)c1)[C@@H]1O[C@H](CO)[C@@H](O[C@@H]2O[C@H](CO)[C@H](O)[C@H](O)[C@H]2O)[C@H](O)[C@H]1O"
  Target or test system: "human galectin-3C (Gal-3C, C-terminal CRD of galectin-3) (Homo sapiens, UniProt P17931)"
  Unit label: "µM"
  IC50: 330
- Structure as smiles: "CCOC(=O)c1ccccc1N(C(C)=O)[C@@H]1O[C@H](CO)[C@@H](O[C@@H]2O[C@H](CO)[C@H](O)[C@H](O)[C@H]2O)[C@H](O)[C@H]1O"
  Target or test system: "human galectin-3C (Gal-3C, C-terminal CRD of galectin-3) (Homo sapiens, UniProt P17931)"
  Unit label: "µM"
  IC50: 240
- Structure as smiles: "CC(=O)N(c1ccc(I)cc1)[C@@H]1O[C@H](CO)[C@@H](O[C@@H]2O[C@H](CO)[C@H](O)[C@H](O)[C@H]2O)[C@H](O)[C@H]1O"
  Target or test system: "human galectin-3C (Gal-3C, C-terminal CRD of galectin-3) (Homo sapiens, UniProt P17931)"
  Unit label: "µM"
  IC50: 360
- Structure as smiles: "CC(=O)N(c1ccc(C)cc1)[C@@H]1O[C@H](CO)[C@@H](O[C@@H]2O[C@H](CO)[C@H](O)[C@H](O)[C@H]2O)[C@H](O)[C@H]1O"
  Target or test system: "human galectin-3C (Gal-3C, C-terminal CRD of galectin-3) (Homo sapiens, UniProt P17931)"
  Unit label: "µM"
  IC50: 400
- Structure as smiles: "CC(=O)N(c1cccc(-c2cn(C)nn2)c1)[C@@H]1O[C@H](CO)[C@@H](O[C@@H]2O[C@H](CO)[C@H](O)[C@H](O)[C@H]2O)[C@H](O)[C@H]1O"
  Target or test system: "human galectin-3C (Gal-3C, C-terminal CRD of galectin-3) (Homo sapiens, UniProt P17931)"
  Unit label: "µM"
  IC50: 190

stdin: // query IC50 value for entry COC(=O)c1cccc(N(C(C)=O)[C@@H]2O[C@H](CO)[C@@H](O[C@@H]3O[C@H](CO)[C@H](O)[C@H](O)[C@H]3O)[C@H](O)[C@H]2O)c1
stdout: 240

stdin: // query IC50 value for entry C#Cc1cccc(N(C(C)=O)[C@@H]2O[C@H](CO)[C@@H](O[C@@H]3O[C@H](CO)[C@H](O)[C@H](O)[C@H]3O)[C@H](O)[C@H]2O)c1
stdout: 500

stdin: // query IC50 value for entry CC(=O)N(c1cccc(-c2nnn[nH]2)c1)[C@@H]1O[C@H](CO)[C@@H](O[C@@H]2O[C@H](CO)[C@H](O)[C@H](O)[C@H]2O)[C@H](O)[C@H]1O
stdout: 120

stdin: // query IC50 value for entry CC(=O)c1c[nH]c2cc(C(=O)O)cc(N(C(C)=O)[C@@H]3O[C@H](CO)[C@@H](S[C@@H]4O[C@H](CO)[C@H](O)[C@H](n5cc(-c6cccc(F)c6)nn5)[C@H]4O)[C@H](O)[C@H]3O)c12
stdout: 0.15

stdin: // query IC50 value for entry CC(=O)N(c1cc(C(=O)O)cc2[nH]ccc12)[C@@H]1O[C@H](CO)[C@@H](S[C@@H]2O[C@H](CO)[C@H](O)[C@H](n3cc(-c4cccc(F)c4)nn3)[C@H]2O)[C@H](O)[C@H]1O
stdout: 0.058

stdin: // query IC50 value for entry O=C(O)c1cccc(N(C(=O)c2ccccc2)[C@@H]2O[C@H](CO)[C@@H](O[C@@H]3O[C@H](CO)[C@H](O)[C@H](O)[C@H]3O)[C@H](O)[C@H]2O)c1
stdout: 120

====

biological target: human galectin-1 (Gal-1, full length) (Homo sapiens, UniProt P09382); construct: Gal-1 is a prototype galectin consisting of a single CRD and was used in full length; 6xHis tag with TEV protease site (N, cleaved yes); made in house; host or cells: BL21 Escherichia coli (pET-15b); experiment: Competitive fluorescence polarization assay, Gal-1; assay type: binding; details: competitive fluorescence polarization; mean ± SD; read-out: Kd Gal-1
Sequence (P09382 2-135): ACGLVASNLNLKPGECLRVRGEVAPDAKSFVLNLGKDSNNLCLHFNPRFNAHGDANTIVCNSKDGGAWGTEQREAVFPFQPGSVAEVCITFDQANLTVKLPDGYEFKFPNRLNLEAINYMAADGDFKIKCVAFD
// classify: if (Kd < 600 µM) rule met else rule not met

Below are worked cases with known answers.
- Structure as smiles: "CC(=O)N(c1ccc(C)cc1)[C@@H]1O[C@H](CO)[C@@H](O[C@@H]2O[C@H](CO)[C@H](O)[C@H](O)[C@H]2O)[C@H](O)[C@H]1O"
  Target or test system: "human galectin-1 (Gal-1, full length) (Homo sapiens, UniProt P09382)"
  Label: "rule met"
- Structure as smiles: "CC(=O)N(c1cc(C(=O)O)cc2[nH]ccc12)[C@@H]1O[C@H](CO)[C@@H](S[C@@H]2O[C@H](CO)[C@H](O)[C@H](n3cc(-c4cccc(F)c4)nn3)[C@H]2O)[C@H](O)[C@H]1O"
  Target or test system: "human galectin-1 (Gal-1, full length) (Homo sapiens, UniProt P09382)"
  Label: "rule met"
- Structure as smiles: "CC(=O)N(c1cc(Cl)cc(C(=O)O)c1)[C@@H]1O[C@H](CO)[C@@H](O[C@@H]2O[C@H](CO)[C@H](O)[C@H](O)[C@H]2O)[C@H](O)[C@H]1O"
  Target or test system: "human galectin-1 (Gal-1, full length) (Homo sapiens, UniProt P09382)"
  Label: "rule not met"
- Structure as smiles: "CC(=O)N(c1cc(O)cc(C(=O)O)c1)[C@@H]1O[C@H](CO)[C@@H](O[C@@H]2O[C@H](CO)[C@H](O)[C@H](O)[C@H]2O)[C@H](O)[C@H]1O"
  Target or test system: "human galectin-1 (Gal-1, full length) (Homo sapiens, UniProt P09382)"
  Label: "rule not met"

stdin: Quick check: does CC(=O)N(c1cccc(-c2cn(C)nn2)c1)[C@@H]1O[C@H](CO)[C@@H](O[C@@H]2O[C@H](CO)[C@H](O)[C@H](O)[C@H]2O)[C@H](O)[C@H]1O have Kd under 600 µM?
stdout: rule met

stdin: Quick check: does O=C(O)c1cccc(N(C(=O)Cc2ccccc2)[C@@H]2O[C@H](CO)[C@@H](O[C@@H]3O[C@H](CO)[C@H](O)[C@H](O)[C@H]3O)[C@H](O)[C@H]2O)c1 have Kd under 600 µM?
stdout: rule not met

stdin: Quick check: does CCOC(=O)c1ccccc1N(C(C)=O)[C@@H]1O[C@H](CO)[C@@H](O[C@@H]2O[C@H](CO)[C@H](O)[C@H](O)[C@H]2O)[C@H](O)[C@H]1O have Kd under 600 µM?
stdout: rule met

stdin: Quick check: does CC(=O)N(c1ccc(I)cc1)[C@@H]1O[C@H](CO)[C@@H](O[C@@H]2O[C@H](CO)[C@H](O)[C@H](O)[C@H]2O)[C@H](O)[C@H]1O have Kd under 600 µM?
stdout: rule met

stdin: Quick check: does CC(=O)N(c1cc(F)c(F)c(F)c1)[C@@H]1O[C@H](CO)[C@@H](O[C@@H]2O[C@H](CO)[C@H](O)[C@H](O)[C@H]2O)[C@H](O)[C@H]1O have Kd under 600 µM?
stdout: rule met

stdin: Quick check: does CC(=O)N(c1ccc(Cl)cc1)[C@@H]1O[C@H](CO)[C@@H](O[C@@H]2O[C@H](CO)[C@H](O)[C@H](O)[C@H]2O)[C@H](O)[C@H]1O have Kd under 600 µM?
stdout: rule met
